system: OVCAR-4 ovarian; assay: NCI-60 one-dose screen, 48 h; conditions: 10 µM unless noted
This is part of a sample that, as a whole, favours compounds with a hit. Of some 83,000 tested, about 20% had one in any assay. Active and inactive are the calls of the source. Rule for the calls: active = growth percent below 10; inactive = the rest.
Outcome codes: active, inactive

Compound: Cc1nn(-c2ccc(Br)cc2)c2nc(CCl)[nH]c(=O)c12
Assigned category: inactive

Compound: O=C(Nc1ccc(-c2nc(-c3cccc(O)c3)c(-c3ccnc(Br)c3)[nH]2)cc1)c1ccccc1
Assigned category: inactive

Compound: Fc1ccccc1/C=C(/C1=NCCN1)n1cnc2ccccc21
Assigned category: inactive

Compound: CCN1C(=O)N(CC)C2C1NN=C1SC(c3ccccc3)=CC(=O)N12 (stereo not given)
Assigned category: inactive

Compound: CC1COc2c(N3CCN(C)CC3)c(F)cc3c(=O)c(C(=O)N/N=C/c4cc[nH]c4)cn1c23 (stereo not given)
Assigned category: inactive

Compound: CC(=O)NC(C)(C)C(=O)N1CCC[C@H]1C(=O)NC(C)(C)C(=O)N[C@@H](C)C(=O)NC(C)(C)C(=O)N[C@@H](C)C(=O)N[C@@H](CCC(N)=O)C(=O)NC(C)(C)C(=O)N[C@H](C(=O)NC(C)(C)C(=O)NCC(=O)N[C@@H](CC(C)C)C(=O)NC(C)(C)C(=O)N1CCC[C@H]1C(=O)N[C@H](C(=O)NC(C)(C)C(=O)NC(C)(C)C(=O)N[C@@H](CCC(N)=O)C(=O)N[C@@H](CCC(N)=O)C(=O)N[C@H](CO)Cc1ccccc1)C(C)C)C(C)C
Assigned category: inactive

Compound: Cc1cc(=O)n2nc(-c3c[nH]c4ccccc34)sc2n1
Assigned category: inactive

Compound: Nc1nc(N)c2c(n1)NC(c1ccc(Cl)cc1)CC(c1ccc(Nc3nc(NCCO)nc(Nc4ccc(Cl)cc4)n3)cc1)=N2 (stereo not given)
Assigned category: inactive

Compound: COc1ccc(NC2=C(Cl)C(=O)C(C)=C(C)C2=O)cc1
Assigned category: active

Compound: O=C(Nc1cccc(Cl)c1)Nc1nc2ccc(-c3cccc4ccccc34)cc2s1
Assigned category: inactive

Compound: COC(=O)[C@@]1(C)CC[C@]2(C)CC[C@]3(C)C(=CC(=O)[C@@H]4[C@@]5(C)Cc6c(n(CC#CCN7CCN(C)CC7)c7ccccc67)C(C)(C)[C@@H]5CC[C@]43C)[C@@H]2C1
Assigned category: inactive

Compound: COc1cc2c3c(n(CCCN4CCCC4)c(=O)c2cc1OC)-c1cc2c(cc1C3=O)OCO2
Assigned category: active

Compound: CCOC(=O)c1nn(-c2ccc(C)cc2)c(=O)c2c(N)c(C#N)c(-c3ccc(OC)cc3)cc12
Assigned category: inactive

Compound: O=C1/C(=C/c2ccccc2[N+](=O)[O-])Oc2ccc(O)cc21
Assigned category: inactive

Compound: O=C1c2c(c3c4cccnc4[nH]c3c3ccc4ccccc4c23)C(=O)N1CCN1CCCCC1
Assigned category: inactive
